# assay system: F317L BCR-Abl (Homo sapiens, UniProt P00519, F317L)
# Construct: the other entry of the earlier key: BCR (P11274, Breakpoint cluster region protein)
# test summary: Antiproliferative effect on Ba/F3 cells expressing F317L BCR-Abl
# run parameters: Ba/F3 cells expressing F317L mutant
pIC50: −log10 of the molar value.
experimental readout: pIC50

a. Cc1cn(-c2cc(C(=O)Nc3ccc(C)c(NC(=O)n4ccc5c(Nc6cccc(N(C)C)c6)ncnc54)c3)cc(C(F)(F)F)c2)cn1
b. Cc1cn(-c2cc(C(=O)Nc3ccc(C)c(NC(=O)n4ccc5c(Nc6cccc(C(N)=O)c6)ncnc54)c3)cc(C(F)(F)F)c2)cn1
Dear colleague, could you let me know whether a or b has the lower recorded pIC50? Thanks. Select an item and report its label.
a
(a: 7.30, b: 8.05)
